B1: TPR t1 (parent)
chain: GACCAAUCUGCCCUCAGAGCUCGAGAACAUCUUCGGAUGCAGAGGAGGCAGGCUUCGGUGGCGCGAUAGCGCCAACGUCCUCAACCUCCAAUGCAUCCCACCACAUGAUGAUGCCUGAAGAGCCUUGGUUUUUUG

Variants of: B1
assay.details: polymerase ribozyme fitness, log enrichment relative to wild type (log ratio); higher = more active; in vitro selection for triplet polymerase activity
measured.quantity: polymerase ribozyme fitness (log ratio)
Give your answer as a number; write no unit.

Incoming: Check the records and state polymerase ribozyme fitness (log ratio) for GACCAAUCUGCCCUCAGAGCUCGAGAACAUCAUCGGAUGCAGAGGAGGCAGGCUUCGGUGGCGCGAUAGCGGCAACGUCCUCAACCUCCAAUGCAUCCCACCACAUGAUGAUGCCUGAAGAGCCUUGGUUUUUUG [U32A C72G]
Outgoing: -3.95

Incoming: Check the records and state polymerase ribozyme fitness (log ratio) for GACCAAUCUGCCCUCAGAGCUCGAGAACAUCUUCGGAUGCAGAGGAGGCAGGCUUCGGUGGCGCGAUACCGCCAACGUCCUCAACCUCCAAUGCAUCCCACCACAUGAUGAUGCCUGAAGAGGCUUGGUUUUUUG [G69C C123G]
Outgoing: 0.685

Incoming: Check the records and state polymerase ribozyme fitness (log ratio) for GACAAAUCUGCCCUCAGAGCUCGAGAACAUCUUCGGAUGCAGAGGAGGCAGGCUUCGGUGGCGCGAUAGGGCCAACGUACUCAACCUCCAAUGCAUCCCACCACAUGAUGAUGUCUGAAGAGCCUUGGUUUUUUG [C4A C70G C79A C114U]
Outgoing: -5.9

Incoming: Check the records and state polymerase ribozyme fitness (log ratio) for GACCAAUCUGCCCUCAGCGCUCGAGAACAUCUUCGGAUGCAGAGGAGGCAGGAUUCGGUGGUGCGAUAGCGUCAACGUCCUCAAGCUCCAAUGCAUCCCACCACAUGAUGAUGCCUGAAGAUCCUUGGUUUUUUG [A18C C53A C62U C72U C85G G122U]
Outgoing: -4.78

Incoming: Check the records and state polymerase ribozyme fitness (log ratio) for GACCAAUCUGGCCUCAGAGCUCGAGAACAUCUUCGGAUGCAGAGGAGGCAGGCUUCGGUGGCGCGUUAGCGCCAACGUCCUCAACCUCCAAUGCAUCCCACCACAUGAUGAUGCCUGAAGAGCCUUGGUUUUUUG [C11G A66U]
Outgoing: -0.995

Incoming: Check the records and state polymerase ribozyme fitness (log ratio) for GACCAAUCUGCCCUCAGAGCUCGAGAACAUCUUGGGAUGCAGAGGAGGCAGGCUUCGGUGGCGCGAUAGCGCCAACGUCCUCAACCUCCAAUGCAUCCCACCACAUGAUGAAGCCUGAAGAGCCUUGGUUUUUUG [C34G U112A]
Outgoing: -4.47

Incoming: Check the records and state polymerase ribozyme fitness (log ratio) for GACCAAUCUGCCCUCAGAGCUCGAGAACAUCUUAGGAUGCAGAGGAGGCAGGCUUCGGUCGCGCGAUAGCGCCAACGUCCUCAACCUCCAAUGCAUCCCACCACAUGAUGAGGCCUGAAGAGCCUUGGUAUUAUG [C34A G60C U112G U130A U133A]
Outgoing: -4.54
